All figures here come from PubChem BioAssay (NCI).

test system: HT29 colon; experiment: NCI tumour cell line growth inhibition, 48 h
outcome.measure: TGI

Below, each entry is followed by its recorded TGI result.
Nc1ncn([C@H]2CC(O)[C@@H](CO)S2)c(=O)n1 (stereo not given in full)
> 100 µM
N[C@@H]1CCCN(c2c(Br)cnc3[nH]cc(NC(=O)C4CC4)c23)C1
> 100 µM
Nc1nc(SCc2ccccc2CCl)c2[nH]cnc2n1
35.6 µM
CC(=O)OC1CCn2c1nc1cc([N+](=O)[O-])c(C)cc12 (stereo not given)
> 100 µM

Q. For the compound CCn1cc(C(=O)O)c(=O)c2cc(F)c(N3CCN(S(=O)(=O)c4ccc(Cl)cc4Cl)CC3)cc21 , give its measured TGI value.
A. > 100 µM

----------
Entries and their TGI
test system: NCI-H460 lung; assay: NCI tumour cell line growth inhibition, 48 h
Give just the numeric value; µM need not be written.

Worked set:
CCCCCCCCCCCC1N=C(N)N=C(N)N1c1cccc(Br)c1 (stereo unspecified)
1.65
COc1cc(C(=O)c2cnc(-c3c[nH]c4cccc(C)c34)[nH]2)cc(OC)c1OC
35.4

Q. Indicate its recorded TGI; the compound in question is CC(=O)Oc1ccc2cc(Oc3cc(Cl)c(Cl)cc3Cl)c(=O)oc2c1
A. 37.8

Q. Provide TGI value for the following compound: COC(=O)c1c(C)nc(C)c2c1C(=O)C(Br)=C(NCc1ccccc1)C2=O
A. 11.5

Q. Using the record for COc1ccc(/C=C/C(=O)c2c(-c3ccccc3)nn(C)c(=O)c2N2CC2C)cc1 (stereo unspecified) , state its measured TGI.
A. 65.5

Q. Name the recorded TGI of the item CNC(=O)CCN1CCN(CC/C=C2\c3ccccc3Sc3ccc(Cl)cc32)CC1 in your answer.
A. 21.6

Q. Find the measured TGI of Cc1c2cc[n+](Cc3ccc(I)cc3)cc2c(C)c2c1[nH]c1ccccc12 and report it.
A. 1.93

Q. Please look at this compound and report its TGI: CN(CCN)[C@H](CSSC[C@@H](c1ccccc1O)N(C)CCN)c1ccccc1O
A. 24.4

Q. Determine from records and report TGI for O=[N+]([O-])c1ccccc1N=Nc1c(O)[nH]c2c(Cl)cccc12
A. 38.4

----------
test system: DLD-1 colon; assay: NCI tumour cell line growth inhibition, 48 h
outcome.measure: TGI

Nc1nc(Cl)c2ncn(CCCC(c3ccccc3)P(=O)(O)O)c2n1 (stereo unspecified)
> 100 µM
C/C=C/C=C/c1cc2cc3c(c(O)c2c(=O)[nH]1)C1(CC3)C(O)=c2c(=O)c3c(=O)cc(OC)c(=O)c=3c(=O)c2=C1O (stereo unspecified)
17.9 µM
C[N+](C)(C)CC1CCC(C[N+](C)(C)C)C1=NO (stereo unspecified)
> 100 µM
CC(=O)CCC1(c2ccccc2)OC(=O)C(C#N)=C1c1ccccc1 (stereo unspecified)
> 100 µM
COc1ccc(/C=C/C(=O)c2c(-c3ccccc3)nn(C)c(=O)c2N2CC2C)cc1 (stereo unspecified)
> 100 µM

Attention now turns to another entry.
Q. Tell me TGI of CCCC1C[C@H]2CCCCN2[C@H]2CCCN12 (stereo partly specified) when tested on DLD-1 colon.
A. > 83.6 µM

----------
test system: A498 renal; test: NCI tumour cell line growth inhibition, 48 h
The reader will find reported TGI values listed item by item below.
The answer is to be given in µM; state only the numeric part.

Examples with answers:
[CH3][Sn]([CH3])([CH3])[S]C(=S)N1CCOCC1
73.8
COc1ccc(-c2nsc3c2NC(=O)CC3c2ccsc2)cc1 (configuration not stated)
0.808
COc1ccc(/C=C/C(=O)c2c(-c3ccccc3)nn(C)c(=O)c2N2CC2C)cc1 (configuration not stated)
80.7
CNC(=O)CCN1CCN(CC/C=C2\c3ccccc3Sc3ccc(Cl)cc32)CC1
19.9
CCN(CC)c1c(C(C)(C)C)c(=O)n2ccsc2c1OC(C)=O
33.6

Q. Entry COc1cc(-c2nc(-c3ccccc3)c(-c3ccccc3)[nH]2)cc(OC)c1O needs its TGI filled in; supply it.
A. 24.7

Q. Complete the entry with TGI for N[C@@H]1CCCN(c2c(Br)cnc3[nH]cc(NC(=O)C4CC4)c23)C1
A. 0.182

Q. Tell me TGI reported for O=C(C[N+]12CN3CN(CN(C3)C1)C2)c1ccc(-c2ccccc2)cc1
A. 44.4

Q. For CCOC(=O)Cc1c(C(=O)OCC)[n+](=O)c2cc(Cl)c(Cl)cc2n1[O-] , write its TGI.
A. 6.14

Q. State, in one line, measured TGI of CC(=O)Oc1ccc2cc(Oc3cc(Cl)c(Cl)cc3Cl)c(=O)oc2c1
A. 46.7

Q. Fill in TGI for record Oc1c(Br)cc2c(c1Br)-c1c(c(O)c3c4c1=NCCC=4C=N3)NCC2
A. 45.7

----------
test system: HOP-92 NSCLC; test: NCI tumour cell line growth inhibition, 48 h; in the data active = GI50 below about 0.43 µM; inactive = the rest
Choose one outcome from this list and give only that: T = active, F = inactive

Check out these entries, answers already filled in.
CCn1cc(C(=O)O)c(=O)c2cc(F)c(N3CCN(S(=O)(=O)c4ccc(Cl)cc4Cl)CC3)cc21
F
N[C@@H]1CCCN(c2c(Br)cnc3[nH]cc(NC(=O)C4CC4)c23)C1
F
CCN(CC)c1ccc(/C=N/NC(=O)Cc2ccc(Nc3ccnc(C(F)(F)F)c3)cc2)c(O)c1
F
S=c1ssnc1-c1cc2ccccc2o1
F
COc1ccc(-c2nsc3c2NC(=O)CC3c2ccsc2)cc1 (stereo not given)
T
CN1CCCCC1CCN1c2ccccc2Sc2ccc(Br)cc21 (stereo not given)
F

Q. Field: outcome | Entry: C/C=C/C=C/c1cc2cc3c(c(O)c2c(=O)[nH]1)C1(CC3)C(O)=c2c(=O)c3c(=O)cc(OC)c(=O)c=3c(=O)c2=C1O (stereo not given)
A. T

Q. Look up the recorded call for CCn1c(-c2nonc2N)nc2ccccc21 in this test.
A. F

Q. Returns: the outcome recorded for CCCCNc1ncnc2c1cnn2-c1ccccc1 in this assay.
A. F

Q. Which outcome did this test record for the compound COc1cccc(C2CC(=O)Nc3c2c(C)nn3-c2nc3ccccc3[nH]2)c1OC (stereo not given) ?
A. F

----------
tested on: SNB-75 CNS; assay: NCI tumour cell line growth inhibition, 48 h
We'd kindly ask you to apply these TGI classes: zone 1: < 6 µM; zone 2: ≥ 6 µM and < 70 µM; zone 3: ≥ 70 µM

COC(=O)Cc1cc(=O)n2c3ccccc3n(C)c2c1C#N
zone 3
Cc1c(Cl)ccc2c1NC(=O)C2(O)CC(=O)c1ccc(Cl)cc1 (configuration not stated)
zone 3

Q. Pick a category. Item: [O]=[Sn]([CH]1CCCCC1)[CH]1CCCCC1
A. zone 1

Q. Which band does CCN(CC)c1c(C(C)(C)C)c(=O)n2ccsc2c1OC(C)=O fall in?
A. zone 2

Q. Category of CSc1cc(Cl)c(C)cc1S(=O)(=O)NC(=O)NNc1ccc(C)cc1 , please.
A. zone 3

----------
tested on: RXF 393 renal; experiment: NCI tumour cell line growth inhibition, 48 h; in the data active = GI50 below about 0.43 µM; inactive = the rest
Write down the outcome that applies. Available outcomes: Y = active, N = inactive

CCn1cc(C(=O)O)c(=O)c2cc(F)c(N3CCN(S(=O)(=O)c4ccc(Cl)cc4Cl)CC3)cc21
N
N#C[S-].[La+3].c1ccc(-c2ccccn2)nc1.c1ccc(-c2ccccn2)nc1.c1ccc(-c2ccccn2)nc1
N
O=C1C(Cl)=C(Nc2ccc(S(=O)(=O)c3ccc(NC4=C(Cl)C(=O)c5ccccc5C4=O)cc3)cc2)C(=O)c2ccccc21
N
CCCN1C(=O)/C(=C/c2ccc(SC(F)(F)F)cc2)SC1=Nc1ccc(OC)cc1
N

Q. For COc1cc2c(c(OC)c1OC)-c1cc(I)c(O)cc1[C@@H](NC(C)=O)CC2 , which call appears in the assay record?
A. Y

Q. For [Br][Pb]([c]1ccccc1)([c]1ccccc1)[c]1ccccc1 , which call appears in the assay record?
A. Y

----------
test system: HCT-15 colon; experiment: NCI tumour cell line growth inhibition, 48 h
# reported GI50; entries follow

Q. Identify measured GI50 obtained with HCT-15 colon for CCN(CC)c1ccc(/C=N/NC(=O)Cc2ccc(Nc3ccnc(C(F)(F)F)c3)cc2)c(O)c1 .
A. 373 nM

Q. Determine reported GI50 for O=C(/C=C/c1ccc(O)c(O)c1)N1CCN(c2ccc(Cl)cc2)CC1 ; test system: HCT-15 colon.
A. 3830 nM

Q. # return GI50 for Cn1c(=O)c(-c2ccccc2Cl)cc2cnc(NC3CCOCC3)nc21 , test system: HCT-15 colon
A. 9820 nM

Q. Fetch value of GI50 on HCT-15 colon for N[C@@H]1CCCN(c2c(Br)cnc3[nH]cc(NC(=O)C4CC4)c23)C1 .
A. 540 nM

Q. // fetch GI50 for [O]=[Sn]([CH]1CCCCC1)[CH]1CCCCC1 ; system: HCT-15 colon
A. 197 nM

Q. Give reported GI50 for COc1ccc(-c2nsc3c2NC(=O)CC3c2ccsc2)cc1 (stereo not given) (HCT-15 colon)
A. 101 nM
